Cited source for all entries: PubChem BioAssay (NCI)

system: NCI-H23 lung; test: NCI tumour cell line growth inhibition, 48 h
# key: entry, value: TGI

# COMPOUND, INEQUALITY OPERATOR, TGI [µM]
measured = [
    ("Nc1nc(-c2ccccc2)cc(-c2ccc(OCc3ccccc3)cc2O)n1", ">", 100),
    ("CC1(C)C(=O)/C(=C\\c2cccnc2)C[C@]2(C)[C@H]3CC[C@@H]4[C@H]5[C@H](C(=O)/C=C/c6cccnc6)CC[C@]5(C(=O)O)CC[C@@]4(C)[C@]3(C)CC[C@@H]12", "=", 4.87),
    ("O=C(Nc1nnc(-c2ccc(Cl)cc2)o1)C(SC(=S)N1CCOCC1)c1ccccc1 (centres undefined)", "=", 70.6),
    ("O=C(Nc1n[nH]c2cc(-c3ccccc3)ccc12)C1CC1", ">", 25),
]
